Where do the numbers come from? From patent US11667602B2.

Tested System: human RXFP1 (Homo sapiens, UniProt Q9HBX9)
Sequence (Q9HBX9 whole entry): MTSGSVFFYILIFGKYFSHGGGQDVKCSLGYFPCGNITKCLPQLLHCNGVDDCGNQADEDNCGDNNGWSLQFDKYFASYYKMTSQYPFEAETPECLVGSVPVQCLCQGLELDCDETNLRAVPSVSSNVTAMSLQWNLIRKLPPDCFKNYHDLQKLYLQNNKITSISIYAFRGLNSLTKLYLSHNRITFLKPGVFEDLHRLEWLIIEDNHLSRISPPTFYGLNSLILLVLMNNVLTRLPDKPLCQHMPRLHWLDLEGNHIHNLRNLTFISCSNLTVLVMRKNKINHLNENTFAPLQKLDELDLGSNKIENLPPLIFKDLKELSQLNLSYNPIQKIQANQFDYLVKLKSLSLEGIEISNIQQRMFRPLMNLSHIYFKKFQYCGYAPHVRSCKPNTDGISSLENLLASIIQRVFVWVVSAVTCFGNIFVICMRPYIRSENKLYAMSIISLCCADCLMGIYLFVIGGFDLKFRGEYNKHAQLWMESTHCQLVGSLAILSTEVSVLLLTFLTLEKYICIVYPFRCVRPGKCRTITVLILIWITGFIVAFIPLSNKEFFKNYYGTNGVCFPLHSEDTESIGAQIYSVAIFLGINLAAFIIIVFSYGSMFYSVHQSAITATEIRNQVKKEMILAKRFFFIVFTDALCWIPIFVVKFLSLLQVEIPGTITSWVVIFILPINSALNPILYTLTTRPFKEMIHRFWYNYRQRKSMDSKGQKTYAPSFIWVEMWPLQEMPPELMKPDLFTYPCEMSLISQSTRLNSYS
Assay: RXFP1 Hu cAMP (Test A)
Type: cell-based
Parameters: expressed in transfected cells; host or cells: Jump-In T-REx CHO-K1 cells (ThermoFisher), induced with 10 ng/ml doxycycline for 24 h
Measurement Context: RXFP1 Hu cAMP
Endpoint Label: Test A Sinf (%)

molecule="COc1cc(F)c(O[C@H]2CC[C@@](C)(C(=O)O)CC2)cc1C(=O)N[C@@H]1COCC[C@@H]1C(=O)Nc1cccc(S(=O)(=O)C(F)(F)F)c1 (relative stereo) [Example 559]" value=102
molecule="COc1cc(C#N)c(O[C@H]2CC[C@@](C)(C(=O)O)CC2)cc1C(=O)N[C@H]1[C@@H](C(=O)NCC2(C)CCC2)[C@H]2C=C[C@@H]1CC2 (racemic) [Example 469]" value=99
molecule="COc1cc(C#N)c(OC2CCC(C)(C(=O)O)CC2)cc1C(=O)NC1C(C(=O)NCC2(C)CCC2)C2CCC1N2CCC(F)(F)F (single isomer, unassigned) [Example 537]" value=77
molecule="COc1cc(F)c(O[C@H]2CC[C@@H](C(=O)O)CC2)cc1C(=O)N[C@H]1[C@@H](C(=O)Nc2ccc(OC)c(S(=O)(=O)C(F)(F)F)c2)[C@@H]2C=C[C@H]1C2 [Example 497]" value=108
molecule="COc1cc(F)c(O[C@H]2CC[C@@](C)(C(=O)O)CC2)cc1C(=O)N[C@@H]1CC[C@@H]1C(=O)NCC(C)(C)C (racemic) [Example 346]" value=96
molecule="COc1cc(F)c(O[C@H]2CC[C@@](C)(C(=O)O)CC2)cc1C(=O)N[C@H]1[C@@H](C(=O)NCC2(C)CCC2)[C@H]2C=C[C@@H]1CC2 (racemic) [Example 471]" value=95
molecule="CC1(CNC(=O)[C@H]2[C@@H]3CC[C@@H](C3)[C@H]2NC(=O)c2cc(O[C@H]3CC[C@@](C)(C(=O)O)CC3)c(F)cc2Cl)CCC1 [Example 398]" value=90
molecule="COc1cc(C#N)c(O[C@H]2CC[C@@](C)(C(=O)O)CC2)cc1C(=O)N[C@@H]1[C@H]2CC[C@H](C2)[C@@H]1C(=O)NCC(F)(F)C(F)(F)F [Example 102]" value=122

---

Quick reference for Test A Sinf among some molecules
Tested System: human RXFP1 (Homo sapiens, UniProt Q9HBX9)
Assay: RXFP1 Hu cAMP (Test A)
Type: cell-based
Parameters: expressed in transfected cells; host or cells: Jump-In T-REx CHO-K1 cells (ThermoFisher), induced with 10 ng/ml doxycycline for 24 h
Measurement Context: RXFP1 Hu cAMP
Endpoint Label: Test A Sinf (%)

molecule="COc1cc(F)c(-c2ccnc(C(=O)O)c2)cc1C(=O)N[C@H]1[C@@H](C(=O)Nc2cccc(S(=O)(=O)C(F)(F)F)c2)[C@@H]2C=C[C@H]1C2 (racemic) [Example 272]" tested_system="human RXFP1 (Homo sapiens, UniProt Q9HBX9)" u=% value=107
molecule="CCc1cc(OC)c(C(=O)N[C@@H]2[C@H]3CC[C@H](C3)[C@@H]2C(=O)NC23CC(F)(C2)C3)cc1O[C@H]1CC[C@@](C)(C(=O)O)CC1 [Example 383]" tested_system="human RXFP1 (Homo sapiens, UniProt Q9HBX9)" u=% value=89
molecule="COc1cc(F)c(-c2ccc(OCCCC(=O)O)cc2)cc1C(=O)N[C@@H]1[C@H]2CC[C@H](C2)[C@@H]1C(=O)Nc1cccc(S(=O)(=O)C(F)(F)F)c1 [Example 251]" tested_system="human RXFP1 (Homo sapiens, UniProt Q9HBX9)" u=% value=101
molecule="COc1cc(C#N)c(O[C@H]2CC[C@@](C)(C(=O)O)CC2)cc1C(=O)N[C@@H]1[C@H]2CC[C@H](C2)[C@@H]1C(=O)NC1(C#N)CC1 [Example 72]" tested_system="human RXFP1 (Homo sapiens, UniProt Q9HBX9)" u=% value=75
molecule="COc1cc(F)c(-c2ccc3c(c2)OC[C@H]3CC(=O)O)cc1C(=O)N[C@@H]1[C@H]2CC[C@H](C2)[C@@H]1C(=O)Nc1cccc(S(=O)(=O)C(F)(F)F)c1 [Example 253]" tested_system="human RXFP1 (Homo sapiens, UniProt Q9HBX9)" u=% value=102
molecule="COc1cc(C#N)c(O[C@H]2CC[C@@](C)(C(=O)O)CC2)cc1C(=O)N[C@@H]1[C@H]2CC[C@H](C2)[C@@H]1C(=O)N[C@@H](C)c1ccccc1 (racemic) [Example 140]" tested_system="human RXFP1 (Homo sapiens, UniProt Q9HBX9)" u=% value=95
molecule="COc1cc(F)c(O[C@H]2CC[C@@](C)(C(=O)O)CC2)cc1C(=O)N[C@@H]1CCC[C@@H]1C(=O)NCC(C)(C)C#N [Example 69]" tested_system="human RXFP1 (Homo sapiens, UniProt Q9HBX9)" u=% value=93
molecule="COc1cc(F)c(O[C@H]2CC[C@@](C)(C(=O)O)CC2)cc1C(=O)Nc1ccccc1C(=O)NCC(C)(C)C [Example 142]" tested_system="human RXFP1 (Homo sapiens, UniProt Q9HBX9)" u=% value=129
molecule="COc1cc(F)c(O[C@H]2CC[C@@H](C(=O)O)CC2)cc1C(=O)N[C@@H]1[C@H](C(=O)Nc2ccc(F)c(C(F)(F)F)c2)[C@H]2C=C[C@@H]1C2 [Example 501]" tested_system="human RXFP1 (Homo sapiens, UniProt Q9HBX9)" u=% value=82
molecule="COc1cc(F)c(O[C@H]2CC[C@@](C)(C(=O)O)CC2)cc1C(=O)N[C@@H]1[C@H]2CC[C@H](C2)[C@@H]1C(=O)NC(C)(C)C(F)(F)F [Example 603]" tested_system="human RXFP1 (Homo sapiens, UniProt Q9HBX9)" u=% value=99
molecule="COc1cc(F)c(-c2ccc(C(=O)O)cc2)cc1C(=O)N[C@H]1[C@@H](C(=O)Nc2cc(F)cc(C(F)(F)F)c2)[C@@H]2C=C[C@H]1C2 (racemic) [Example 308]" tested_system="human RXFP1 (Homo sapiens, UniProt Q9HBX9)" u=% value=109
molecule="COc1cc(C#N)c(O[C@H]2CC[C@@](C)(C(=O)O)CC2)cc1C(=O)N[C@@H]1[C@H]2CC[C@H](C2)[C@@H]1C(=O)NCC1(C)CCCCCC1 [Example 105]" tested_system="human RXFP1 (Homo sapiens, UniProt Q9HBX9)" u=% value=125
molecule="COc1cc(C#N)c(O[C@H]2CC[C@@](C)(C(=O)O)CC2)cc1C(=O)N[C@@H]1[C@H]2CC[C@H](C2)[C@@H]1C(=O)NCC1(CC(C)C)CCC1 [Example 106]" tested_system="human RXFP1 (Homo sapiens, UniProt Q9HBX9)" u=% value=112
molecule="COc1cc(F)c(-c2ccc3c(c2)OC[C@@H]3CC(=O)O)cc1C(=O)N[C@@H]1[C@H]2CC[C@H](C2)[C@@H]1C(=O)Nc1cccc(S(=O)(=O)C(F)(F)F)c1 [Example 254]" tested_system="human RXFP1 (Homo sapiens, UniProt Q9HBX9)" u=% value=114
molecule="COc1cc(C#N)c(O[C@H]2CC[C@@](C)(C(=O)O)CC2)cc1C(=O)Nc1cc(C)ccc1C(=O)N[C@H]1C[C@@H](C)C1 [Example 171]" tested_system="human RXFP1 (Homo sapiens, UniProt Q9HBX9)" u=% value=119
molecule="COc1cc(F)c(-c2ccc(C(=O)O)cc2)cc1C(=O)N[C@@H]1[C@@H]2CC[C@@H](C2)[C@@H]1C(=O)Nc1cccc(S(=O)(=O)C(F)(F)F)c1 (racemic) [Example 303]" tested_system="human RXFP1 (Homo sapiens, UniProt Q9HBX9)" u=% value=114

---

Assay: Human Plasma Protein Binding (Test B)
Type: in vitro ADME
Measurement Context: fraction unbound (fu)
Endpoint Label: Test B Human Plasma Protein Binding (% free)

molecule=COc1cc(F)c(O[C@H]2CC[C@@H](C(=O)O)CC2)cc1C(=O)N[C@@H]1[C@H]2CC[C@H](C2)[C@@H]1C(=O)Nc1cccc(C(F)(F)F)c1 limit_sign== value=0.93
molecule=COc1cc(F)c(-c2ccc3c(c2)OC[C@H]3CC(=O)O)cc1C(=O)N[C@@H]1[C@H]2CC[C@H](C2)[C@@H]1C(=O)Nc1cccc(S(=O)(=O)C(F)(F)F)c1 limit_sign=< value=0.32
molecule=COc1cc(F)c(O[C@H]2CC[C@@H](C(=O)O)CC2)cc1C(=O)N[C@@H]1[C@H]2CC[C@H](C2)[C@@H]1C(=O)Nc1cccc(C(C)C)c1 limit_sign== value=1.7
molecule="COc1cc(F)c(-c2ccc(CCS(N)(=O)=O)cc2)cc1C(=O)N[C@H]1[C@H]2CC[C@H](C2)[C@H]1C(=O)Nc1cccc(S(=O)(=O)C(F)(F)F)c1 (single isomer, unassigned)" limit_sign=< value=0.35
molecule=COc1cc(F)c(O[C@H]2CC[C@@H](C(=O)O)CC2)cc1C(=O)N[C@@H]1[C@H]2CC[C@H](C2)[C@@H]1C(=O)NC1CC(F)(F)C1 limit_sign== value=15
molecule=COc1cc(F)c(-c2ccc(OC(C)(C)C(=O)O)cc2)cc1C(=O)N[C@@H]1[C@H]2CC[C@H](C2)[C@@H]1C(=O)Nc1cccc(S(=O)(=O)C(F)(F)F)c1 limit_sign== value=0.050
molecule=COc1cc(C#N)c(O[C@H]2CC[C@@](C)(C(=O)O)CC2)cc1C(=O)N[C@@H]1[C@H]2CC[C@H](C2)[C@@H]1C(=O)NCC1(CO)CCC1 limit_sign== value=25
molecule=COc1cc(F)c(O[C@H]2CC[C@@H](C(=O)O)CC2)cc1C(=O)N[C@@H]1[C@H]2CC[C@H](C2)[C@@H]1C(=O)Nc1ccnc(C(F)(F)F)c1 limit_sign== value=2.7
molecule="COc1cc(F)c(O[C@H]2CC[C@@](C)(C(=O)O)CC2)cc1C(=O)N[C@H]1C[C@@H](OC)C[C@H]1C(=O)Nc1cccc(S(=O)(=O)C(F)(F)F)c1 (stereo in doubt)" limit_sign== value=4
molecule="COc1cc(F)c(-c2ccc(F)c(C(=O)O)c2)cc1C(=O)N[C@H]1[C@@H](C(=O)Nc2cccc(S(=O)(=O)C(F)(F)F)c2)[C@@H]2C=C[C@H]1C2 (racemic)" limit_sign=< value=0.31
